# Target or system: Neprilysin (Homo sapiens)
# Protocol notes: Inhibition of human recombinant neprilysin using Abz-dR-G-L-EDDnp as substrate incubated for 10 mins prior to substrate addition measured for 40 mins by fluorometry
Property measured: pIC50
Reminder that pIC50 is minus the log10 of a molar concentration.

Qu. Which pIC50 is reported for this substance? H-FQRFSR-OH
Ans. 4.29

---

# Target or system: Aminopeptidase N (Homo sapiens)
# Sequence (P15144 whole entry): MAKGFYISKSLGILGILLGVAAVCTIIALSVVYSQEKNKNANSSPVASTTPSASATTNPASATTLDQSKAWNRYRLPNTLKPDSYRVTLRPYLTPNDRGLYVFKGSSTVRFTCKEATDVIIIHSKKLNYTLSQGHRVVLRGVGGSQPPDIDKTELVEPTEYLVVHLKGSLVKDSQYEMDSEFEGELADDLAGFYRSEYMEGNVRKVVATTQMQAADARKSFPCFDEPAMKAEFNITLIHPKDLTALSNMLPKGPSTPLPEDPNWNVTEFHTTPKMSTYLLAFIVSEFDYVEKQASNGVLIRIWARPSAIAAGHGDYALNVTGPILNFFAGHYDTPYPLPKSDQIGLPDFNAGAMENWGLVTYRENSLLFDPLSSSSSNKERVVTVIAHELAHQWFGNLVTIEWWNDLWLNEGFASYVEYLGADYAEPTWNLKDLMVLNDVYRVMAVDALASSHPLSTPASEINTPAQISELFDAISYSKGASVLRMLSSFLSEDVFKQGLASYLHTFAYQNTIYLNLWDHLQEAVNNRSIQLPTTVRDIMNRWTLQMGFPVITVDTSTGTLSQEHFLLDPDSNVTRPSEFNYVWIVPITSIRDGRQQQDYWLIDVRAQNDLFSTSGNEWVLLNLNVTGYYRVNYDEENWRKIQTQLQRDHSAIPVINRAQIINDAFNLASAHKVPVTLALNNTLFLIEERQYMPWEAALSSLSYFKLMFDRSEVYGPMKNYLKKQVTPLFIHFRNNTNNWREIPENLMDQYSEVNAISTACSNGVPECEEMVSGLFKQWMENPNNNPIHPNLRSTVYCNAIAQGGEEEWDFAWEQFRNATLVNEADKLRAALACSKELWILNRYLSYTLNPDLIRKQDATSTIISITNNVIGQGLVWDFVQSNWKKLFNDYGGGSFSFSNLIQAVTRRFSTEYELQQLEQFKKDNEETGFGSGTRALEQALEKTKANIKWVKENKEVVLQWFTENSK
# Protocol notes: Inhibition of human aminopeptidase N
Peptide text beside a SMILES is read from it.
Property measured: IC50 (µM)
Value expressed in µM; do not type the unit.

Qu. Which IC50 is reported for this molecule? NC(N)=NCCC[C@H](NC(=O)[C@H](CO)NC(=O)[C@@H](N)Cc1ccccc1)C(=O)O [OPIORPHIN (3-5)] (H-Phe-Ser-Arg-OH)
Ans. 120

---

# Target or system: Neprilysin (Homo sapiens, UniProt P08473)
# Sequence (P08473 whole entry): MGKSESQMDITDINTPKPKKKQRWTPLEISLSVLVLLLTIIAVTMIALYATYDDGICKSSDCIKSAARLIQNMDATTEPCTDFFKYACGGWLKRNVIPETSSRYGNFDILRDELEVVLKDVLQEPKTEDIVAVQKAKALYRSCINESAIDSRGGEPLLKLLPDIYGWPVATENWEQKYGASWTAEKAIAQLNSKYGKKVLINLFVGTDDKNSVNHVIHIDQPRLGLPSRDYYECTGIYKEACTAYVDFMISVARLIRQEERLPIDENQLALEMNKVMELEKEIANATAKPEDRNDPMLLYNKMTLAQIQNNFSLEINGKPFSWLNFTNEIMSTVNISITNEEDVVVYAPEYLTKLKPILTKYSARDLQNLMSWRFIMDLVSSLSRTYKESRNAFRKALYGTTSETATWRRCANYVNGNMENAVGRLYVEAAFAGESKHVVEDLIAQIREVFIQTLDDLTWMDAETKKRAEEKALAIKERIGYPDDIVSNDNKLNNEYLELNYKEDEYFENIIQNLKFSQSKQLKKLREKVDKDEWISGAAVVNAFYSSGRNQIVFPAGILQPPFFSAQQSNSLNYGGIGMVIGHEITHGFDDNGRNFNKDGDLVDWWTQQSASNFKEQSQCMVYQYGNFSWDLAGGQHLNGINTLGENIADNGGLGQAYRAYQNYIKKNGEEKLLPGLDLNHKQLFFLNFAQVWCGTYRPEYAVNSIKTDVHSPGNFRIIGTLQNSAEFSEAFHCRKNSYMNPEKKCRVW
# Protocol notes: Inhibition of human neprilysin
Peptide text beside a SMILES is read from it.
Property measured: pIC50
Reminder that pIC50 is minus the log10 of a molar concentration.

| Molecule | Target or system | pIC50 |
| --- | --- | --- |
| N=C(N)NCCC[C@H](NC(=O)[C@H](CO)NC(=O)[C@H](Cc1ccccc1)NC(=O)[C@@H](N)CCCNC(=N)N)C(=O)O [OPIORPHIN (2-5)] (H-RFSR-OH) | Neprilysin (Homo sapiens, UniProt P08473) | 3.74 |

Read the next record carefully.
Qu. Query pIC50 on Neprilysin (Homo sapiens, UniProt P08473) for NC(N)=NCCC[C@H](NC(=O)[C@H](CO)NC(=O)[C@@H](N)Cc1ccccc1)C(=O)O [OPIORPHIN (3-5)] (H-Phe-Ser-Arg-OH)
Ans. 5.15

These measurements were taken from ChEMBL document CHEMBL2029309.
